All values here come from PubChem BioAssay AID686978.

Experiment: qHTS for Inhibitors of human tyrosyl-DNA phosphodiesterase 1 (TDP1): qHTS in cells in absence of CPT; further: nearly all actives have a fitted effect of over 55% in size
Settings: DT40 Tdp1-/- hTDP1 cells, no CPT, ATP luminescence, 48 h
About 64,000 (15%) of roughly 420,000 compounds were called active. Not shown: some 27% with an inconclusive outcome. The call rests on the fitted dose curve; in most records, active means well fitted inhibition curve with a large enough effect; inconclusive means small, poorly fitted or top-dose-only effect; inactive means flat fitted curve, though single readings scatter. A selection follows.
Outcome codes: y = active, n = inactive

compound | class name
Cn1c(=NC(=O)C2CC2)sc2cc(F)cc(F)c21 | n
CC(C)C[C@H]1CN([C@@H](CC(C)C)CN2CCC[C@@H]2CN2C(=O)C(=O)NC[C@@H]2Cc2ccccc2)C(=O)C(=O)N1CCc1ccccc1 | y
Cc1nn(C)cc1N1C(=O)c2cccc3c(N)ccc(c23)C1=O | n
CCOc1ccc(CCN2C(=O)C(=O)N([C@@H](Cc3ccc(O)cc3)CN3CCC[C@H]3CN3C(=O)C(=O)NC[C@@H]3CC(C)C)C[C@@H]2Cc2ccccc2)cc1 | n
CCOc1ccc(CCN2C(=S)N([C@@H](CC(C)C)CN3CCC[C@@H]3CN3C(=S)NC[C@@H]3Cc3ccc(O)cc3)C[C@@H]2CC(C)C)cc1 | y
CCOC(=O)c1c(-c2ccc(C)cc2C)csc1NC(=O)CSc1nnnn1C | y
COc1ccc(C(=O)N(Cc2ccc(N(C)C)cc2)C2CCS(=O)(=O)C2)cc1 (stereo not drawn) | n
CCOC(=O)CNC(=O)CSc1nnnn1-c1cc(C)ccc1C | n
